# target: FKBP52 (Homo sapiens, UniProt Q02790)
# Construct: Purified FK1-domains of FKBP51WT (4.5 nM) with F4 (3 nM), FKBP52WT (400 nM) with F2 (20 nM); implied by Ni-NTA purification) (N); made in house; host or cells: E. coli BL21(DE3)pLysS
# Sequence (Q02790 50-138 limits assumed): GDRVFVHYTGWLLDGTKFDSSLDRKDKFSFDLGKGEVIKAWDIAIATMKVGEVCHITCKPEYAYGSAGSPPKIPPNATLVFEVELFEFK
# assay.procedure: Fluorescence polarization binding assay, FK1-domain of FKBP52WT with tracer F2 (selectivity FKBP51 vs. FKBP52)
# conditions.used: selectivity factor over FKBP52; compounds B01-C25
readout.kind: Ki(FKBP51)/Ki(FKBP52)

Example results:
CC[C@H](C)[C@H](NC(=O)[C@@H]1CCCCN1C(=O)[C@H](c1cc(OC)c(OC)c(OC)c1)C1CCCCC1)C(N)=O
++ (>50 ++)
COc1cc([C@@H](C(=O)N2CCCC[C@H]2C(=O)OCCCO)C2CCCCC2)cc(OC)c1OC
+++ (>500 +++)
COc1cc([C@@H](C(=O)N2CCCC[C@H]2C(=O)NCC(N)=O)C2CCCCC2)cc(OC)c1OC
+ (>5 +)
COC(=O)[C@@H]1CCCCN1C(=O)[C@H](c1cc(OC)c(OC)c(OC)c1)C1CCCCC1
++ (>50 ++)
CC[C@@H](NC(=O)[C@@H]1CCCCN1C(=O)[C@H](c1cc(OC)c(OC)c(OC)c1)C1CCCCC1)C(N)=O
++ (>50 ++)

Task item: Note down Ki(FKBP51)/Ki(FKBP52) recorded for "COc1cc([C@@H](C(=O)N2CCCC[C@H]2C(=O)N[C@@H](CC2CCCCC2)C(N)=O)C2CCCCC2)cc(OC)c1OC"
Reply: + (>5 +)

Task item: Note down Ki(FKBP51)/Ki(FKBP52) recorded for CCC(C)OC(=O)C1CCCCN1C(=O)[C@H](c1cc(OC)c(OC)c(OC)c1)C1CCCCC1 (stereo in doubt)
Reply: ++ (>50 ++)

Task item: Note down Ki(FKBP51)/Ki(FKBP52) recorded for "COc1cc([C@@H](C(=O)N2CCCC[C@H]2C(=O)OC2CCCCCC2)C2CCCCC2)cc(OC)c1OC"
Reply: ++ (>50 ++)

Task item: Note down Ki(FKBP51)/Ki(FKBP52) recorded for "CC[C@@H](C)[C@@H](NC(=O)[C@@H]1CCCCN1C(=O)[C@H](c1cc(OC)c(OC)c(OC)c1)C1CCCCC1)C(N)=O"
Reply: ++ (>50 ++)

Task item: Note down Ki(FKBP51)/Ki(FKBP52) recorded for "COc1cc([C@@H](C(=O)N2CCCC[C@H]2C(=O)NC(C)(C)C(N)=O)C2CCCCC2)cc(OC)c1OC"
Reply: +++ (>500 +++)

Task item: Note down Ki(FKBP51)/Ki(FKBP52) recorded for "COc1cc([C@@H](C(=O)N2CCCC[C@H]2C(=O)N[C@H](C)C(N)=O)C2CCCCC2)cc(OC)c1OC"
Reply: ++ (>50 ++)

Task item: Note down Ki(FKBP51)/Ki(FKBP52) recorded for "COc1cc([C@@H](C(=O)N2CCCC[C@H]2C(=O)N[C@H](C(N)=O)C(C)C)C2CCCCC2)cc(OC)c1OC"
Reply: + (>5 +)

Task item: Note down Ki(FKBP51)/Ki(FKBP52) recorded for "CC[C@H](C)OC(=O)[C@@H]1CCCCN1C(=O)[C@H](c1cc(OC)c(OC)c(OC)c1)C1CCCCC1"
Reply: ++ (>50 ++)

Task item: Note down Ki(FKBP51)/Ki(FKBP52) recorded for "C=CCOC(=O)[C@@H]1CCCCN1C(=O)[C@H](c1cc(OC)c(OC)c(OC)c1)C1CCCCC1"
Reply: ++ (>50 ++)

Task item: Note down Ki(FKBP51)/Ki(FKBP52) recorded for "COc1cc([C@@H](C(=O)N2CCCC[C@H]2C(=O)N[C@@H](CO)C(N)=O)C2CCCCC2)cc(OC)c1OC"
Reply: ++ (>50 ++)

The reported measurements were obtained from patent US9845292B2.
